assay: Tissue distribution study in rats; format: in vivo, SD rats; details: male, Sprague-Dawley, rat, muscle, single oral dose 100 mg/kg
Quantity kind: Cmax (ng/mL)
Quick note: give the figure in ng/mL, leave out the unit.

[Q] Respond only with Cmax recorded for CC(=O)Nc1ccc(NC(=O)c2ccc(C(C)=O)o2)cc1 [Compound 25a]
[A] 728

###

assay: Pharmacokinetic study in rats (plasma, LC-MS/MS, NCA); details: male, Sprague-Dawley, rat, plasma, po, 50 mg/kg, Cmax, rats, single p.o. 50 mg/kg
Quantity kind: Cmax (ng/mL)
Give the number; ng/mL is assumed, so skip it.

[Q] // Input: CC(=O)Nc1ccc(NC(=O)c2ccc(C(C)=O)o2)cc1 [Compound 25a] . Output its Cmax only.
[A] 693

###

assay: Pharmacokinetic study in rats (plasma, LC-MS/MS, NCA); details: male, Sprague-Dawley, rat, plasma, po, 100 mg/kg, Mean plasma concentration, rats, 1 h, single p.o. 100 mg/kg
Quantity kind: concentration at 1 h
Write the quantity with the unit trailing the number.

[Q] Respond only with concentration at 1 h recorded for CC(=O)Nc1ccc(NC(=O)c2ccc(C(C)=O)o2)cc1 [Compound 25a]
[A] 734 ng/mL

###

test: Pharmacokinetic study in rats (plasma, LC-MS/MS, NCA); details: male, Sprague-Dawley, rat, plasma, po, 50 mg/kg, Mean plasma concentration, rats, 0.25 h, single p.o. 50 mg/kg
Quantity kind: concentration at 0.25 h (ng/mL)
Give your result in ng/mL as a bare value.

[Q] Retrieve concentration at 0.25 h measured for CC(=O)Nc1ccc(NC(=O)c2ccc(C(C)=O)o2)cc1 [Compound 25a] and print it.
[A] 496

###

assay: Tissue distribution study in rats; type: in vivo, SD rats; details: male, Sprague-Dawley, rat, lung, single oral dose 100 mg/kg
Quantity kind: Tmax (min)
Give the quantity in min, number only.

[Q] Give me measured Tmax, please, for this molecule: CC(=O)Nc1ccc(NC(=O)c2ccc(C(C)=O)o2)cc1 [Compound 25a]
[A] 24

###

assay: Tissue distribution study in rats; format: in vivo, SD rats; details: male, Sprague-Dawley, rat, plasma (tissue distribution study), single oral dose 100 mg/kg
Quantity kind: half-life (h)
Please reply with the bare figure in h and do not write the unit itself.

[Q] Return reported half-life. Input molecule: CC(=O)Nc1ccc(NC(=O)c2ccc(C(C)=O)o2)cc1 [Compound 25a]
[A] 5.7

###

test: Pharmacokinetic study in rats (plasma, LC-MS/MS, NCA); details: male, Sprague-Dawley, rat, plasma, po, 100 mg/kg, Cmax, rats, multiple p.o. 100 mg/kg, twice per day for 7 days
Quantity kind: Cmax (ng/mL)
Entry rule: numbers only, all in ng/mL.

[Q] Dear colleague, please send me the reported Cmax for CC(=O)Nc1ccc(NC(=O)c2ccc(C(C)=O)o2)cc1 [Compound 25a] when you can.
[A] 1710

###

test: Pharmacokinetic study in rats (plasma, LC-MS/MS, NCA); conditions: male, Sprague-Dawley, rat, plasma, po, 100 mg/kg, Mean plasma concentration, rats, 0.167 h, single p.o. 100 mg/kg
Quantity kind: concentration at 0.167 h (µg/mL)
Write the answer as a number in µg/mL, unit excluded.

[Q] Report concentration at 0.167 h for CC(=O)Nc1ccc(NC(=O)c2ccc(C(C)=O)o2)cc1 [Compound 25a]
[A] 1.32

The values you see were collected from paper PMC9027532.
